# System: HeLa Kyoto
# Experimental protocol: melting temperature (median over replicates), in situ; higher = more thermally stable
# Settings: cell cycle stage: mitosis
Reported melting temperature values for the following sequences.
# answer = value followed by unit

MIEDTMTLLSLLGRIMRYFLLRPETLFLLCISLALWSYFFHTDEVKTIVKSSRDAVKMVKGKVAEIMQNDRLGGLDVLEAEFSKTWEFKNHNVAVYSIQGRRDHMEDRFEVLTDLANKTHPSIFGIFDGHGGETAAEYVKSRLPEALKQHLQDYEKDKENSVLSYQTILEQQILSIDREMLEKLTVSYDEAGTTCLIALLSDKDLTVANVGDSRGVLCDKDGNAIPLSHDHKPYQLKERKRIKRAGGFISFNGSWRVQGILAMSRSLGDYPLKNLNVVIPDPDILTFDLDKLQPEFMILASDGLWDAFSNEEAVRFIKERLDEPHFGAKSIVLQSFYRGCPDNITVMVVKFRNSSKTEEQ [PPM1L] = 53.9 °C

I am curious: what melting temperature value has been reported for MDRTCEERPAEDGSDEEDPDSMEAPTRIRDTPEDIVLEAPASGLAFHPARDLLAAGDVDGDVFVFSYSCQEGETKELWSSGHHLKACRAVAFSEDGQKLITVSKDKAIHVLDVEQGQLERRVSKAHGAPINSLLLVDENVLATGDDTGGICLWDQRKEGPLMDMRQHEEYIADMALDPAKKLLLTASGDGCLGIFNIKRRRFELLSEPQSGDLTSVTLMKWGKKVACGSSEGTIYLFNWNGFGATSDRFALRAESIDCMVPVTESLLCTGSTDGVIRAVNILPNRVVGSVGQHTGEPVEELALSHCGRFLASSGHDQRLKFWDMAQLRAVVVDDYRRRKKKGGPLRALSSKTWSTDDFFAGLREEGEDSMAQEEKEETGDDSD [WDR55] ?
51.4 °C

====

# Test system: HeLa Kyoto;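 note: HeLa Kyoto cells synchronized by double thymidine or nocodazole block, proteins quantified by TMT10plex mass spectrometry, three independent biological replicates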
# Experimental protocol: melting temperature (median over replicates), in situ; higher = more thermally stable
# Settings: cell cycle stage: mitosis
Reported melting temperature values for the following sequences.
Report the value in °C with no unit label.

MDDQGCPRCKTTKYRNPSLKLMVNVCGHTLCESCVDLLFVRGAGNCPECGTPLRKSNFRVQLFEDPTVDKEVEIRKKVLKIYNKREEDFPSLREYNDFLEEVEEIVFNLTNNVDLDNTKKKMEIYQKENKDVIQKNKLKLTREQEELEEALEVERQENEQRRLFIQKEEQLQQILKRKNKQAFLDELESSDLPVALLLAQHKDRSTQLEMQLEKPKPVKPVTFSTGIKMGQHISLAPIHKLEEALYEYQPLQIETYGPHVPELEMLGRLGYLNHVRAASPQDLAGGYTSSLACHRALQDAFSGLFWQPS [MNAT1] = 53

Now consider the entry below.
Kindly state the measured melting temperature obtained for MFVELNNLLNTTPDRAEQGKLTLLCDAKTDGSFLVHHFLSFYLKANCKVCFVALIQSFSHYSIVGQKLGVSLTMARERGQLVFLEGLKSAVDVVFQAQKEPHPLQFLREANAGNLKPLFEFVREALKPVDSGEARWTYPVLLVDDLSVLLSLGMGAVAVLDFIHYCRATVCWELKGNMVVLVHDSGDAEDEENDILLNGLSHQSHLILRAEGLATGFCRDVHGQLRILWRRPSQPAVHRDQSFTYQYKIQDKSVSFFAKGMSPAVL [ELP6] with HeLa Kyoto.
54.4
